assay: Toxicity liver stage against HepG2, at 10uM; format: cell-based; set-up: test concentration 10 uM, cell line HepG2-A16-CD81EGFP; conditions: human, HepG2-A16-CD81EGFP cells; read-out: INHIBITION
Examples of molecules with documented cytotoxicity at 10 µM follow.
Response body: numeric value in %, unit text excluded.

CN1CCN(Cc2n[nH]c(=O)n2CC2CCCCC2)CC1
-47.9
O=c1[nH][nH]cc1-c1ccnc(NCCc2cccc(O)c2)n1
-7.83
O=C(O)[C@@H]1CN(Cc2cc3c(cc2Cl)OCO3)C[C@H]1C1CC1
0.0851
Cc1cccc2c(CCNC(=O)[C@H](N)c3ccccc3)c[nH]c12
-3.55
Cc1noc(C)c1CCCNC(=O)Nc1cccc([S+](C)[O-])c1 (stereo not drawn)
-0.595

[in] GET /values?readout=cytotoxicity at 10 µM&item= Cc1nc(-c2cn(CCN)nn2)n(-c2ccc3c(c2)CCC3)n1
[out] 2.86

[in] GET /values?readout=cytotoxicity at 10 µM&item= COCc1noc(-c2ccc(N3CCCC3c3nccs3)nc2)n1 (stereo not drawn)
[out] 7.12

[in] GET /values?readout=cytotoxicity at 10 µM&item= CCOc1cccc2c1OCC(C(=O)NS(=O)(=O)c1c(C)noc1C)=C2
[out] -12.1

[in] GET /values?readout=cytotoxicity at 10 µM&item= Cc1cnc(C(NC(=O)NCC2(CO)CC2)C2CC2)s1 (stereo not drawn)
[out] 1.8

[in] GET /values?readout=cytotoxicity at 10 µM&item= CC(Cn1cccn1)NC(=O)c1ccsc1 (stereo not drawn)
[out] -5.2

[in] GET /values?readout=cytotoxicity at 10 µM&item= Cc1cccc(I)c1C(=O)NCc1ncc[nH]1
[out] 0.392

[in] GET /values?readout=cytotoxicity at 10 µM&item= O=C(c1cc(C2CC2)[nH]n1)N1CCCC(n2cncn2)C1 (stereo not drawn)
[out] -6
